Test system: HEK-293T
method.description: Incucyte cell viability with HEK293T; also: unitless GR value; below 1 slowed growth and below 0 cell loss
Format: toxicity, cell-based
condition.details: human, 6 h, 10 µM, compound concentration 10 uM, replicate number 1
Classify: T when Growth Rate is strictly less than 0.2; F when Growth Rate is not.

Input line: Answer whether the molecule CC(C)c1ccc(/C=N/NC(=O)c2ccc(O)cc2)cc1 has Growth Rate strictly less than 0.2
Output line: F

Input line: Answer whether the molecule Cn1cc(-n2cnc3c(NCc4nc5cc(Cl)c(Cl)cc5[nH]4)nc(N4CCOCC4)nc32)cn1 has Growth Rate strictly less than 0.2
Output line: T

Input line: Answer whether the molecule COc1ccc(F)c(F)c1C(=O)c1cnc(NC2CCN(S(C)(=O)=O)CC2)nc1N has Growth Rate strictly less than 0.2
Output line: T

Input line: Answer whether the molecule O=C(Nc1ccc(Cl)nc1)c1ccc(Cl)cc1 has Growth Rate strictly less than 0.2
Output line: F

Input line: Answer whether the molecule CCn1c(-c2nonc2N)nc2c(C#CC(C)(C)O)ncc(OCC3CCCNC3)c21 (centres undefined) has Growth Rate strictly less than 0.2
Output line: T

Input line: Answer whether the molecule Cc1nn(C)c(COc2ccc(N3CCN(S(=O)(=O)N(C)C)CC3)cc2)c1-c1cccc2c(CCCOc3cccc4ccccc34)c(C(=O)O)n(CCN3CCOCC3)c12 has Growth Rate strictly less than 0.2
Output line: F

Input line: Answer whether the molecule Cc1nccn1-c1ccc(Sc2cccc(C3(C(N)=O)CCOCC3)c2)cc1 has Growth Rate strictly less than 0.2
Output line: F

Input line: Answer whether the molecule C=CC[C@@H]1/C=C(\C)C[C@H](C)C[C@H](OC)[C@H]2O[C@@](O)(C(=O)C(=O)N3CCCC[C@H]3C(=O)O[C@H](/C(C)=C/[C@@H]3CC[C@@H](O)[C@H](OC)C3)[C@H](C)[C@@H](O)CC1=O)[C@H](C)C[C@@H]2OC.O has Growth Rate strictly less than 0.2
Output line: T

Input line: Answer whether the molecule Cl.NC(=O)c1ccccc1Nc1nc(-c2ccc(N3CCOCC3)cc2)cc2ncccc12 has Growth Rate strictly less than 0.2
Output line: T

* * *

Tested on: U2OS
method.description: Incucyte cell viability with U2OS; also: unitless GR value; below 1 slowed growth and below 0 cell loss
Type: toxicity, cell-based
condition.details: human, 6 h, 10 µM, compound concentration 10 uM, replicate number 2
property.label: Growth Rate
Give only the figure.

Input line: Which Growth Rate reading was recorded for the compound Cn1cc(C(=O)O)c2ccc(N3CCC(OCc4c(-c5c(Cl)cccc5Cl)noc4C4CC4)CC3)cc21 ?
Output line: -0.83

Input line: Which Growth Rate reading was recorded for the compound CC(C)NC(=O)[C@H]1CCC[C@H]1Nc1nc(Nc2ccc(CN(C)C)cc2)ncc1Br.Cl ?
Output line: 0.17

Input line: Which Growth Rate reading was recorded for the compound N#Cc1ccc(C#CC[C@@H](C#N)NC(=O)[C@H]2CCCCN2)cc1F.O=C(O)C(F)(F)F ?
Output line: 0.95

Input line: Which Growth Rate reading was recorded for the compound O=C(O)CNC(=O)c1c(O)c2ccccc2n(Cc2ccccc2)c1=O ?
Output line: 0.74

Input line: Which Growth Rate reading was recorded for the compound COc1ccc2c(O[C@@H]3C[C@H]4C(=O)N[C@]5(C(=O)NS(=O)(=O)C6(C)CC6)CC5/C=C\CCCCC[C@H](NC(=O)c5ccn(C)n5)C(=O)N4C3)cc(OC(C)C)nc2c1C (stereo partly drawn) ?
Output line: 0.93

Input line: Which Growth Rate reading was recorded for the compound C=C[C@H]1C[N@@]2CC[C@H]1C[C@@H]2[C@@H](O)c1ccnc2ccc(OC)cc12 ?
Output line: -0.07

Input line: Which Growth Rate reading was recorded for the compound CCN1/C(=C/C(C)=O)Sc2ccc(OC(C)=O)cc21 ?
Output line: 0.95

Input line: Which Growth Rate reading was recorded for the compound COc1ccc(Cl)cc1[C@]1(F)C(=O)Nc2cc(C(F)(F)F)ccc21 ?
Output line: 0.48

* * *

Test system: U2OS
method.description: Incucyte cell viability with U2OS; also: unitless GR value; below 1 slowed growth and below 0 cell loss
Format: toxicity, cell-based
condition.details: human, 6 h, 10 µM, compound concentration 10 uM, replicate number 2
property.label: Growth Rate
Give only the figure.

Input line: Which Growth Rate reading was recorded for the compound CC[C@@H](CO)Nc1nc(Nc2cccc(NC(=O)C(C)(C)C)c2)ncc1F ?
Output line: 0.8

Input line: Which Growth Rate reading was recorded for the compound CC(C=CC1=C(C)CCCC1(C)C)=CC=CC(C)=CC(=O)O ?
Output line: 0.93

Input line: Which Growth Rate reading was recorded for the compound C=CC(=O)Nc1cc(Nc2nccc(-n3cc(CN(C)C)c(-c4ccccc4)n3)n2)c(OC)cc1N1CCOCC1 ?
Output line: 0.77

Input line: Which Growth Rate reading was recorded for the compound CCC(=O)O[C@]1(C(=O)CCl)[C@@H](C)C[C@H]2[C@@H]3CCC4=CC(=O)C=C[C@]4(C)[C@@]3(F)[C@@H](O)C[C@@]21C [CLOBETASOL PROPIONATE] ?
Output line: 0.94

* * *

Test system: HEK-293T
method.description: Incucyte cell viability with HEK293T; also: unitless GR value; below 1 slowed growth and below 0 cell loss
Type: toxicity, cell-based
condition.details: human, 6 h, 10 µM, compound concentration 10 uM, replicate number 2
Classify: Y when Growth Rate is strictly less than 0.4; N when Growth Rate is not.

Input line: Answer whether the compound C[C@@H](CN1CCC(Cc2ccccc2)CC1)[C@@H](O)c1ccc(O)cc1 has Growth Rate strictly less than 0.4
Output line: Y

Input line: Answer whether the compound Cn1cc(-c2cnc3ccc4ccc(CS(=O)(=O)NCc5ccccn5)cc4c(=O)c3c2)cn1 [MK-8033] has Growth Rate strictly less than 0.4
Output line: Y

Input line: Answer whether the compound CC(C)n1nc(-c2cnc(N)c(OC(F)(F)F)c2)cc1[C@H]1[C@@H]2CN(C3COC3)C[C@@H]21 has Growth Rate strictly less than 0.4
Output line: N

Input line: Answer whether the compound CC1(C)CCC[C@]2(C)[C@@H](C=O)C(C=O)=CC[C@@H]12 [POLYGODIAL] has Growth Rate strictly less than 0.4
Output line: N

Input line: Answer whether the compound COc1cc(F)ccc1-c1ncnc(Nc2cccc(C[S@](C)(=N)=O)c2)n1 [ATUVECICLIB] has Growth Rate strictly less than 0.4
Output line: Y

* * *

Task for the reader: assign each of the following molecules its reported Growth Rate.
Tested on: Fibroblast
method.description: Incucyte cell viability with human fibroblast; also: unitless GR value; below 1 slowed growth and below 0 cell loss
Format: toxicity, cell-based
condition.details: 0 h, 10 µM, compound concentration 10 uM, replicate number 1
Give only the figure.

Input line: Which Growth Rate reading was recorded for the molecule Nc1ccc(S(=O)(=O)Nc2ccnn2-c2ccccc2)cc1 ?
Output line: -0.67

Input line: Which Growth Rate reading was recorded for the molecule CC(=O)Nc1nc2c(Oc3cc(-c4ccc(C(F)(F)F)cc4)ncn3)cccc2s1 ?
Output line: -0.1

Input line: Which Growth Rate reading was recorded for the molecule CN1CC[C@@]23CCCC[C@@H]2[C@@H]1Cc1ccc(O)cc13.O=C(O)C(O)C(O)C(=O)O ?
Output line: 0.67

Input line: Which Growth Rate reading was recorded for the molecule CCOC(=O)/N=C(\N)c1ccc(OCc2cccc(COc3ccc(C(C)(C)c4ccc(OC(=O)OCC)cc4)cc3)c2)cc1 ?
Output line: -0.98

Input line: Which Growth Rate reading was recorded for the molecule O=C1N=C(NCc2cccs2)S/C1=C\c1ccc2ncccc2c1 ?
Output line: -0.1

Input line: Which Growth Rate reading was recorded for the molecule COc1cccc(-c2c(C)c(Cc3c(F)cccc3C(F)(F)F)c3n(c2=O)[C@@H]([C@@H](N)c2ccccc2)CS3)c1F ?
Output line: -1

Input line: Which Growth Rate reading was recorded for the molecule CCc1nc(-c2cccc(C)c2)c(-c2ccncc2)s1 ?
Output line: -0.98

Input line: Which Growth Rate reading was recorded for the molecule CC(C)(O)c1ccc2c(c1)ncn2-c1cccc(-c2ccccc2C#N)c1 ?
Output line: 0.6

Input line: Which Growth Rate reading was recorded for the molecule CNc1nc(Nc2ccc(C(=O)N3CCOCC3)cc2OC)ncc1Cl ?
Output line: -0.99

* * *

Test system: U2OS
method.description: Incucyte cell viability with U2OS; also: unitless GR value; below 1 slowed growth and below 0 cell loss
Type: toxicity, cell-based
condition.details: human, 0 h, 10 µM, compound concentration 10 uM, replicate number 2
property.label: Growth Rate
Give only the figure.

Input line: Which Growth Rate reading was recorded for the compound CCN1CCN(Cc2ccc(NC(=O)c3ccc(C)c(Oc4ccnc5[nH]ccc45)c3)cc2C(F)(F)F)CC1.Cl.Cl.Cl.O ?
Output line: -0.97

Input line: Which Growth Rate reading was recorded for the compound CN(C)CCCN1c2ccccc2Sc2ccc(Cl)cc21.Cl [CHLORPROMAZINE HYDROCHLORIDE] ?
Output line: -0.21

Input line: Which Growth Rate reading was recorded for the compound Cc1c(NC(=O)COc2ccc(Cl)cc2C(=O)c2cc(F)cc(C(F)(F)F)c2)ccc(C(=O)O)c1F [BI 2540] ?
Output line: 0.41

Input line: Which Growth Rate reading was recorded for the compound Cc1nnsc1C(=O)Nc1ccc(-n2nc(C(F)(F)F)cc2C(F)(F)F)cc1 ?
Output line: -0.95

Input line: Which Growth Rate reading was recorded for the compound Cc1cn(CCN2CCN(c3ccccc3-c3cc(C#N)cc(C(=O)NCCCN4CCCC4)c3)CC2)c2ccccc12 ?
Output line: -0.98

Input line: Which Growth Rate reading was recorded for the compound Cc1c(N2CCCC2)nc2ccc(Br)cc2c1C(=O)NC[C@H](CCC(=O)O)c1ccccc1Cl [BAY-6672] ?
Output line: 0.47

Input line: Which Growth Rate reading was recorded for the compound Cc1cc(O)c(-c2ccc([C@@H](C)CN(C)C)cc2)c2c1[nH]c(=O)c1sccc12 ?
Output line: -0.95

Input line: Which Growth Rate reading was recorded for the compound O=C1Nc2ccc(I)cc2/C1=C/c1cc(Br)c(O)c(Br)c1 ?
Output line: 0.76

Input line: Which Growth Rate reading was recorded for the compound CN1C2CCCC1CC(Nc1ccccc1Br)C2 (centres undefined) ?
Output line: -0.9
